Values compiled from the supplement of paper PMC7877785.

assay: self-splicing fitness, log relative to wild type (ln ratio); higher = more splicing; Tetrahymena group I intron in knt gene, E. coli kanamycin selection, DiMSum; sequences stand for … in CUCUCU…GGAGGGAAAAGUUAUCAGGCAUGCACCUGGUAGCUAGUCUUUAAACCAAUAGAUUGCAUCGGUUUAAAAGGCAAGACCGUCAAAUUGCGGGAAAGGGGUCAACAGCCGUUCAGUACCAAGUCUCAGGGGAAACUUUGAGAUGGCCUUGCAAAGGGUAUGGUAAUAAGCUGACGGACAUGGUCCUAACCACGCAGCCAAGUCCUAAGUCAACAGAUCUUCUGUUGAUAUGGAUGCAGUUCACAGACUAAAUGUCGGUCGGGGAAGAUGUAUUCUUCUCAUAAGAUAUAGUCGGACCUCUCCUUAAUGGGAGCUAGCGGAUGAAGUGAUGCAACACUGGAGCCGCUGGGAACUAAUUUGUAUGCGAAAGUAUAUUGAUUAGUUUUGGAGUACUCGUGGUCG; details: 30 °C;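 also: selection with 25 µg/mL kanamycin versus none on LB agar overnight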
Rule: true for self-splicing fitness (ln) not less than -3, false for anything less.

**Q:** Is the recorded value of self-splicing fitness (ln) equal to or greater than -3 for this sequence? `AGUGAGCAAUAUUACGGAGG`
**A:** false

**Q:** # bool: self-splicing fitness (ln) of `AUGUAGCAAUAUUACGUAAU` >= -3
**A:** true

**Q:** Please indicate if the recorded self-splicing fitness (ln) for `AUUCAGCAAUAUUACGUUCU` meets or exceeds -3.
**A:** true

**Q:** Has `GAGAAGCAAUAUUACGCGUC` a recorded self-splicing fitness (ln) greater than or equal to -3?
**A:** false

**Q:** Hi, just wondering whether `CACUAGCAAUAUUACGCGAG` shows self-splicing fitness (ln) of -3 or higher.
**A:** true

**Q:** Does the reported self-splicing fitness (ln) for `UGCUAGCAAUAUUACGGCAA` fall at or above the -3 mark?
**A:** true

**Q:** Does self-splicing fitness (ln) meet or surpass -3 for `GUGCAGCAAUAUUACGGCGG` ?
**A:** true

**Q:** Would you say `CUCUAGCAAUAUUACGUCGU` shows self-splicing fitness (ln) at minimum -3?
**A:** false

**Q:** State whether the measured self-splicing fitness (ln) reaches -3, counting equality as reaching it, for `AACAAGCAAUAUUACGCGGC`
**A:** false

**Q:** Check the entry `CCCUAGCAAUAUUACGGAAC` : does self-splicing fitness (ln) equal or exceed -3?
**A:** false

**Q:** Does the sequence `GAGUAGCAAUAUUACGAGAU` have recorded self-splicing fitness (ln) that is -3 or more?
**A:** false

**Q:** Confirm if self-splicing fitness (ln) reported for the sequence `GUAGAGCAAUAUUACGCUGU` is -3 or above.
**A:** true

**Q:** API: above_or_equal(metric=self-splicing fitness (ln), cutoff=-3) for item `CCGCAGCAAUAUUACGCAAA`
**A:** false

**Q:** Given `UAUUAGCAAUAUUACGAAUU` , state whether its self-splicing fitness (ln) is at least -3.
**A:** true

**Q:** Reported self-splicing fitness (ln) reaches at least -3 for `GUAUAGCAAUAUUACGUGGA` ?
**A:** false

**Q:** Given `GCGGAGCAAUAUUACGCUUC` , state whether its self-splicing fitness (ln) is at least -3.
**A:** true

====

assay: self-splicing fitness, log relative to wild type (ln ratio); higher = more splicing; Tetrahymena group I intron in knt gene, E. coli kanamycin selection, DiMSum; sequences stand for … in CUCUCU…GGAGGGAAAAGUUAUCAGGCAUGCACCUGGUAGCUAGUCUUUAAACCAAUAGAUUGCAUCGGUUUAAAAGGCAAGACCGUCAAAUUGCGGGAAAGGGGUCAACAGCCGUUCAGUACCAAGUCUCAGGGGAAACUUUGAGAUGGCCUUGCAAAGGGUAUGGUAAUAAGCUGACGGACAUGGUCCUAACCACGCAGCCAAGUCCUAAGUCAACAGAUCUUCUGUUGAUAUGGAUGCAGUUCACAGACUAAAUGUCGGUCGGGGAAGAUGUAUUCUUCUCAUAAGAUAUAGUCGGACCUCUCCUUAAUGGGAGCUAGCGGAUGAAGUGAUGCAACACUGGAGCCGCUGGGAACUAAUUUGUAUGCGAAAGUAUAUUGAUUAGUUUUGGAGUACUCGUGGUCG; details: 37 °C
Endpoint name: self-splicing fitness (ln)
Reply briefly: the number, and no unit.

**Q:** Which self-splicing fitness (ln) is reported for this sequence? `AAUCAGCAAUAUUACGCUAA`
**A:** 0.12

**Q:** # get_value(readout='self-splicing fitness (ln)', item= `CUCCAGCAAUAUUACGGCGC` )
**A:** -2.81

**Q:** Consider the sequence shown here: `GGCGAGCAAUAUUACGGACA` What is its recorded self-splicing fitness (ln)?
**A:** -0.824

**Q:** Fill in the blank: the reported self-splicing fitness (ln) of `GACAAGCAAUAUUACGGGCC` is ____.
**A:** -1.96

**Q:** Look up self-splicing fitness (ln) for this sequence: `UCUGAGCAAUAUUACGUACU`
**A:** -2.72

**Q:** What value of measured self-splicing fitness (ln) is listed for `ACAAAGCAAUAUUACGCUCC` ?
**A:** -0.526

**Q:** Look up self-splicing fitness (ln) for this sequence: `GGAUAGCAAUAUUACGCUAA`
**A:** -1.03

**Q:** What self-splicing fitness (ln) value was documented for this sequence, `UUGCAGCAAUAUUACGUGAC` ?
**A:** -0.799

**Q:** Which self-splicing fitness (ln) value belongs to `AAUGAGCAAUAUUACGGGGC` ?
**A:** -1.93

**Q:** # lookup: self-splicing fitness (ln) of `AGCCAGCAAUAUUACGCGAA`
**A:** -2.79

**Q:** For `AGCCAGCAAUAUUACGUAAU` , what is its reported self-splicing fitness (ln)?
**A:** -0.608

**Q:** I would be grateful if you could share the reported self-splicing fitness (ln) for `AUGCAGCAAUAUUACGCUAU` .
**A:** -1.33

**Q:** # lookup: self-splicing fitness (ln) of `AGUUAGCAAUAUUACGACCU`
**A:** -0.469

**Q:** What measured self-splicing fitness (ln) goes with `GACUAGCAAUAUUACGGUUG` ?
**A:** -0.449

**Q:** Would you kindly share the measured self-splicing fitness (ln) for `UGGCAGCAAUAUUACGGGGG` ?
**A:** -2.84

**Q:** What measured self-splicing fitness (ln) goes with `GGCGAGCAAUAUUACGGGUA` ?
**A:** -2.79

**Q:** State the recorded self-splicing fitness (ln) for this entry: `ACUGAGCAAUAUUACGCUCC`
**A:** -1.18

**Q:** Query (sequence): `CCUUAGCAAUAUUACGAUGU` ; field requested: self-splicing fitness (ln)
**A:** -1.49

**Q:** // returns reported self-splicing fitness (ln) for input `CGAAAGCAAUAUUACGUGCG`
**A:** -0.524

**Q:** Report self-splicing fitness (ln) for `AGAAAGCAAUAUUACGAGGU` please.
**A:** -1.93

**Q:** Item `CCUGAGCAAUAUUACGGUAU` has what recorded self-splicing fitness (ln)?
**A:** -2.61

**Q:** Find the recorded self-splicing fitness (ln) belonging to `UUUAAGCAAUAUUACGCAAA` and report it.
**A:** -0.938

**Q:** Which self-splicing fitness (ln) value is on record for `UGUUAGCAAUAUUACGGGUA` ?
**A:** -1.4

**Q:** What self-splicing fitness (ln) value was documented for this sequence, `AUUCAGCAAUAUUACGCGUG` ?
**A:** -0.218

**Q:** Requested field: self-splicing fitness (ln). Item: `CGAUAGCAAUAUUACGGGCC`
**A:** -1.8

**Q:** Fill blank: measured self-splicing fitness (ln) of the sequence `GGCCAGCAAUAUUACGCCUG` is ____.
**A:** -1.68

**Q:** May I ask what self-splicing fitness (ln) has been recorded for `UGUUAGCAAUAUUACGAAUG` ?
**A:** -0.239

**Q:** Return reported self-splicing fitness (ln); argument: `CCCGAGCAAUAUUACGCGAA`
**A:** -3.31

**Q:** Any idea what its self-splicing fitness (ln) is? The sequence is `AGUAAGCAAUAUUACGGUUG`
**A:** -2.51

**Q:** Can you look up the measured self-splicing fitness (ln) of `AUGCAGCAAUAUUACGAUGU` for me?
**A:** 0.146

**Q:** Fill in: self-splicing fitness (ln) of `UUCCAGCAAUAUUACGCUAA` is ___
**A:** -0.376

**Q:** Quick check: self-splicing fitness (ln) of `CUGAAGCAAUAUUACGUCCG` ?
**A:** 0.658

**Q:** Consider the sequence `CCGUAGCAAUAUUACGAUGA` and give its measured self-splicing fitness (ln).
**A:** -1.13

**Q:** # lookup: self-splicing fitness (ln) of `AAUUAGCAAUAUUACGCUUA`
**A:** 0.247

**Q:** Reported self-splicing fitness (ln), sequence `CCAUAGCAAUAUUACGCGGA` : ____
**A:** -2.26

**Q:** Recorded self-splicing fitness (ln) for `GCCAAGCAAUAUUACGAAUU` , please?
**A:** -1.51

**Q:** Can you look up the measured self-splicing fitness (ln) of `AAGCAGCAAUAUUACGUCCG` for me?
**A:** -1.13

**Q:** # query: self-splicing fitness (ln) of entry `GAAAAGCAAUAUUACGUGAA`
**A:** -1.33

**Q:** Look at this sequence and give its reported self-splicing fitness (ln). `GCACAGCAAUAUUACGGAUU`
**A:** -0.231

**Q:** What does the record list as self-splicing fitness (ln) for `CACUAGCAAUAUUACGCGAC` ?
**A:** -3.16

**Q:** Look at this sequence and give its reported self-splicing fitness (ln). `UCUCAGCAAUAUUACGCACA`
**A:** -0.264

**Q:** Would you kindly share the measured self-splicing fitness (ln) for `CGCGAGCAAUAUUACGGUUA` ?
**A:** -0.646

**Q:** Quick one: self-splicing fitness (ln) for `CCAUAGCAAUAUUACGCUGA` ?
**A:** -1.99

**Q:** Bench note: what self-splicing fitness (ln) did `GCGGAGCAAUAUUACGCGAA` show?
**A:** -0.648

**Q:** Please report the recorded self-splicing fitness (ln) for `UGAUAGCAAUAUUACGUUUC` .
**A:** -2.29

**Q:** Which self-splicing fitness (ln) value is on record for `UAGGAGCAAUAUUACGUAUU` ?
**A:** -2.45

**Q:** Which self-splicing fitness (ln) reading was recorded for the sequence `CUGGAGCAAUAUUACGUCGC` ?
**A:** -2.57

**Q:** Which measured self-splicing fitness (ln) value corresponds to `GCGAAGCAAUAUUACGUAUC` ?
**A:** -0.83

**Q:** # query: self-splicing fitness (ln) of entry `CAGCAGCAAUAUUACGACUA`
**A:** 0.43

**Q:** Name the reported self-splicing fitness (ln) value associated with the sequence `CAACAGCAAUAUUACGAUGA`
**A:** -0.678

**Q:** I'd like to know its self-splicing fitness (ln). The sequence in question is `AUACAGCAAUAUUACGAUUC`
**A:** -0.118

**Q:** Name the reported self-splicing fitness (ln) value associated with the sequence `GGGAAGCAAUAUUACGUAAU`
**A:** -0.632

**Q:** Item `CACCAGCAAUAUUACGAUGC` has what recorded self-splicing fitness (ln)?
**A:** -2.06

**Q:** Consider the sequence `CAGUAGCAAUAUUACGAAGG` and give its measured self-splicing fitness (ln).
**A:** -1.8

**Q:** Recorded self-splicing fitness (ln) of `CAUAAGCAAUAUUACGCCAG` , please.
**A:** -0.932

**Q:** Reported self-splicing fitness (ln), sequence `CCCAAGCAAUAUUACGACUU` : ____
**A:** -2.9

**Q:** Given `CCACAGCAAUAUUACGAGCC` , state its recorded self-splicing fitness (ln).
**A:** -2.3

**Q:** For `CACGAGCAAUAUUACGGAAU` , what is its reported self-splicing fitness (ln)?
**A:** -1.67

**Q:** Consider the sequence shown here: `CUUAAGCAAUAUUACGCUAU` What is its recorded self-splicing fitness (ln)?
**A:** -1.8

**Q:** Quick one: self-splicing fitness (ln) for `GGAGAGCAAUAUUACGAUUC` ?
**A:** -0.911

**Q:** Please give the measured self-splicing fitness (ln) for this sequence: `AUCCAGCAAUAUUACGUACA`
**A:** -0.729

**Q:** Looking for the measured self-splicing fitness (ln) of `AGUCAGCAAUAUUACGUACC` , can you help?
**A:** 0.605

**Q:** Any idea what its self-splicing fitness (ln) is? The sequence is `UAGUAGCAAUAUUACGCGCC`
**A:** -0.984

**Q:** Name the reported self-splicing fitness (ln) value associated with the sequence `ACAGAGCAAUAUUACGCAGC`
**A:** -2.25

**Q:** Entry under review: `AUGUAGCAAUAUUACGCAAC` . Reported self-splicing fitness (ln)?
**A:** -0.382

**Q:** What value of measured self-splicing fitness (ln) is listed for `GGGCAGCAAUAUUACGUUUC` ?
**A:** -0.672

**Q:** Fill in: self-splicing fitness (ln) of `ACGGAGCAAUAUUACGGCUC` is ___
**A:** -2.87
